# credit: patent US20200247894A1

Target: T1, human IL-2Rγ endogenously expressed on NK-92 and Jurkat cells (human, UniProt P31785 23-369)
T1 construct: whole, on cells; on cells it stands with the other receptor subunits of the cell line; also called IL-2Rg; CD132
T1 sequence (looked up): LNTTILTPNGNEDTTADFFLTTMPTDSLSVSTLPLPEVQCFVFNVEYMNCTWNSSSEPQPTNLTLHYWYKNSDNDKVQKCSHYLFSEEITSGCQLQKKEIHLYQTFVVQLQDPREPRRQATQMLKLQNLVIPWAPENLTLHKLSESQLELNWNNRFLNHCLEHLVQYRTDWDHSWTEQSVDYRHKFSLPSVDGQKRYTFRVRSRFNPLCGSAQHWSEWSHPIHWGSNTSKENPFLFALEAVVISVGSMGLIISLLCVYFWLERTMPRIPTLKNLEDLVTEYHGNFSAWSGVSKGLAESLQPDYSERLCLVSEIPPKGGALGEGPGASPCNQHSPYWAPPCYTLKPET
Test: flow cytometry, 10 ug/ml antibody, Jurkat cells (endogenous human IL-2Rg)
# key: entry, value: Raw MFI
Number in MFI, nothing else.

Reported Raw MFI for H4H12890P (antibody, human IgG4 S228P, kappa, V domains shown, fully human anti-IL2Rg antibody, human IgG4) VH: EVQLVESGGGLVQPGGSLRLSCAASGFTFNNYAMHWVRQAPGKGLEYVSSISSSGGSTYYEDSVKGRFTISRDNSKNTLYLQMGSLRAEDMAVYYCARSFYGSGTYYDTFDMWGQGTMVTVSS VL: DIQMTQSPSSLSASIGDRVTITCRASQSISRYLNWYQQKPGKAPKLLIYAASSLQSGVPSRFSASGSGTDFTLTISSLQPEDFATYYCQQSYSTPFTFGQGTKLEIKR was 500

Reported Raw MFI for H4H12886P (antibody, human IgG4 S228P, kappa, V domains shown, fully human anti-IL2Rg antibody, human IgG4) VH: EVQLVESGGGLVKPGGSLRLSCAASGFTFSTAWMSWVRQSPGRGLEWVGRMKSKTDGGTTFYAAPVKGRFTISRDDSKNTLYLQMNSLKTEDTAVYYCTTGLVPAFYKYYGVDVWGQGTTVTVSS VL: DIQMTQSPSSLSASVGDRITITCQASQDITNYLNWYQQKPGKAPNLLIYDASNLVTGVPSRFSGSGSGTDFTFTILSLQPEDIATYYCQQYDSLLTFGPGTKVDIKR was 488

Reported Raw MFI for H4H12899P (antibody, human IgG4 S228P, kappa, V domains shown, fully human anti-IL2Rg antibody, human IgG4) VH: QVQLVESGGDLVKPGGSLRLSCATSGFTFSDFYMTWIRQAPGKGLEWISYISNSGSIVKYADSVKGRFTISRDNAKNSLYLQMNSLRAEDTAIYYCARFYGDRWGQGTLVTVSS VL: DIQLTQSPSFLSASVGDRVTITCWASQGISTFLAWYQQKPGKAPKLLIYAASTLQSGVPSRFSGSGSGTDFTLTISSLQPEDFATYHCQQLNNYPWTFGQGTKVEIKR was 114

Reported Raw MFI for H4H12863P (antibody, human IgG4 S228P, kappa, V domains shown, fully human anti-IL2Rg antibody, human IgG4) VH: QVQLVESGGGVVQPGRSLRLSCTASGFTFRSYDMYWVRQAPGKGLEWVSVITYDGNNKYYADSVKGRFTISRDNSKNTLFLQMSSLRPEDTAVYYCAKRGLIWVGESFDYWGQGTLVTVSS VL: DIQMTQSPSTLSASVGDRVTITCRASQSINSWLAWYQQKPGKAPNLLIYKASSLESGVPSRFSGSGSGTEFTLTISSLQPDDFATYYCQQYKSYSWTFGQGTKVEIKR was 1170

Reported Raw MFI for H4H12874P (antibody, human IgG4 S228P, kappa, V domains shown, fully human anti-IL2Rg antibody, human IgG4) VH: QVQLVESGGGVVQPGRSLRLSCAASGFNFRNFGMHWVRQAPGKGLEWVAGILYDGSSKYYADSVKDRFTISRDNSKNTLFLQMNSLRAEDTAMYYCAKEEDTAMVPFDSWGPGTLVTVSS VL: DIQLTQSPSFLSASVGDRVTITCWASQGISSYLAWYQQKPGKAPTLLIYAASTLQSGVPSRFSGSGSGTEFTLTISSLQPEDFASYYCQQLKSYPLTFGGGTKVEIKR was 507
